target: acetylcholine receptor; test: SPR, receptor immobilized on CM5 chip, peptide 10 uM
Note to self: values exactly at 100 RU are satisfied. So Binding affinity (RU) at or above 100 RU is satisfied, below is not satisfied.

(Q) In plain terms: is recorded Binding affinity (RU) at least 100 RU for RKFCMR [6mer-1-909] ?
(A) not satisfied

(Q) Kindly determine if Binding affinity (RU) recorded for RRDWGR [6mer-1-922] is above or exactly 100 RU.
(A) not satisfied

(Q) Can RKRYYR [6mer-1-289] be said to have Binding affinity (RU) at or above 100 RU?
(A) satisfied

(Q) # check: Binding affinity (RU) of RRCDHK [6mer-1-929] is greater than or equal to 100 RU
(A) not satisfied

(Q) Dear colleague, could you confirm whether RRPAMR [6mer-1-920] has Binding affinity (RU) at or above 100 RU?
(A) not satisfied

(Q) Confirm if Binding affinity (RU) reported for the binder KRANHK [6mer-1-874] is 100 RU or above.
(A) not satisfied

(Q) Threshold query (Binding affinity (RU) >= 100 RU) on RWVYKK [6mer-2-417]
(A) satisfied

(Q) Identify whether the reported Binding affinity (RU) of the following binder is 100 RU or greater: RRKTPR [6mer-1-885]
(A) not satisfied

(Q) Given RKQLTK [6mer-1-290] , state whether its Binding affinity (RU) is at least 100 RU.
(A) satisfied

(Q) Hi, just wondering whether RVYTKK [6mer-2-447] shows Binding affinity (RU) of 100 RU or higher.
(A) satisfied

(Q) Test whether the binder KRQRCR [6mer-1-295] records Binding affinity (RU) of 100 RU or higher.
(A) satisfied

(Q) Does RRGYQK [6mer-1-311] have a reported Binding affinity (RU) of at least 100 RU?
(A) satisfied

(Q) Hi team, for RKQIRK [6mer-1-316] , is the recorded Binding affinity (RU) at or above 100 RU?
(A) satisfied

(Q) Answer whether Binding affinity (RU) of KRFLKK [6mer-2-412] is greater than or equal to 100 RU.
(A) satisfied

(Q) Say whether KGIYRR [6mer-2-406] shows Binding affinity (RU) of 100 RU or more.
(A) satisfied

(Q) Reported Binding affinity (RU) at or above 100 RU? KRIMEK [6mer-1-889]
(A) not satisfied

(Q) Please indicate if the recorded Binding affinity (RU) for KVLYKR [6mer-2-436] meets or exceeds 100 RU.
(A) satisfied

(Q) Has KRGITR [6mer-1-327] a recorded Binding affinity (RU) greater than or equal to 100 RU?
(A) satisfied

(Q) Determine whether this binder has Binding affinity (RU) no lower than 100 RU: KQLSKK [6mer-2-440]
(A) satisfied

(Q) API: above_or_equal(metric=Binding affinity (RU), cutoff=100 RU) for item RKTEKR [6mer-1-892]
(A) not satisfied

(Q) Confirm if Binding affinity (RU) reported for the binder KRESHR [6mer-1-927] is 100 RU or above.
(A) not satisfied

(Q) Has KRCHFR [6mer-1-866] a recorded Binding affinity (RU) greater than or equal to 100 RU?
(A) not satisfied

(Q) Determine whether measured Binding affinity (RU) meets or exceeds 100 RU for RKDTWK [6mer-1-915]
(A) not satisfied

(Q) Record KRGVQR [6mer-1-322] ; criterion: Binding affinity (RU) no lower than 100 RU. Met?
(A) satisfied

(Q) Check the entry KWFSKR [6mer-2-439] : does Binding affinity (RU) equal or exceed 100 RU?
(A) satisfied

(Q) Hi team, for RRWLYR [6mer-1-323] , is the recorded Binding affinity (RU) at or above 100 RU?
(A) satisfied

(Q) Could you tell me if the measured Binding affinity (RU) of KRWLSK [6mer-1-299] reaches 100 RU or more?
(A) satisfied

(Q) Confirm if Binding affinity (RU) reported for the binder KRIWAR [6mer-1-873] is 100 RU or above.
(A) not satisfied

(Q) Item KLFSRK [6mer-2-459] with Binding affinity (RU) of 100 RU or above?
(A) satisfied

(Q) Please indicate if the recorded Binding affinity (RU) for KRWVQK [6mer-1-319] meets or exceeds 100 RU.
(A) satisfied

(Q) Quick check: does RRRRLR [6mer-1-334] have Binding affinity (RU) greater than or equal to 100 RU?
(A) satisfied

(Q) Reported Binding affinity (RU) reaches at least 100 RU for KGVLRK [6mer-2-403] ?
(A) satisfied

(Q) hey, is Binding affinity (RU) for this one >= 100 RU? KLLTRR [6mer-2-463]
(A) satisfied
